Form field: melting point (one value per entry).

Solved cases below.
Compound: O=C(O)COc1c(-c2cccc(Cl)c2)cc(C(=O)NCCCC2CCCC2)cc1-c1cccc(C(F)(F)F)c1
Endpoint Value: 173 to 175 °C
--
Compound: CN(CCCCCCCCc1ccccc1)C(=O)c1cc(-c2cccc(F)c2)c(OCC(=O)O)c(-c2cccc(F)c2)c1
Endpoint Value: > 43 °C (dec.)
--
Compound: COc1ccc(-c2cc(C(=O)NCCCCCCCCc3ccccc3)cc(-c3cccc(C(F)(F)F)c3)c2OCC(=O)O)cc1
Endpoint Value: 139 to 144 °C
--
Compound: CCCCCCCCCCCCNC(=O)c1cc(-c2cc(Cl)cc(Cl)c2)c(OCC(=O)O)c(-c2cc(Cl)cc(Cl)c2)c1
Endpoint Value: 139 to 144 °C
--
Compound: O=C(NCCCCCCCCc1ccccc1)c1cc(-c2cccc(C(F)(F)F)c2)c(OCCCCc2nnn[nH]2)c(-c2cccc(C(F)(F)F)c2)c1
Endpoint Value: 145.4 to 150.8 °C

Req: Return reported melting point; argument: COc1ccc2c(ccn2CCCCCCCCNC(=O)c2cc(-c3cccc(Cl)c3)c(OCC(=O)O)c(-c3cccc(Cl)c3)c2)c1
Resp: > 70 °C (dec.)

Req: What value of measured melting point is listed for Cc1ccc2c(c1)cc(C)n2CCCCCCCCNC(=O)c1cc(-c2cccc(Cl)c2)c(OCC(=O)O)c(-c2cccc(Cl)c2)c1 ?
Resp: > 172 °C (dec.)

Req: Which melting point value belongs to O=C(O)COc1c(-c2cccc(Cl)c2)cc(C(=O)NCCCCCCCCn2ccnc2)cc1-c1cccc(Cl)c1 ?
Resp: > 109 °C (dec.)

Req: What melting point value was documented for this compound, O=C(O)COc1c(Br)cc(C(=O)N(CCc2ccccc2)Cc2ccccc2)cc1-c1ccccc1F ?
Resp: > 85 °C (dec.)

Req: So what does the record say about melting point for O=C(O)COc1c(Br)cc2oc(C(=O)c3ccccc3)cc2c1Br ?
Resp: 179 to 181 °C

Req: Look up melting point for this compound: CCCCCCCCCCCCNC(=O)c1cc(-c2ccc(OC)cc2)c(OCC(=O)O)c(-c2ccc(OC)cc2)c1
Resp: 65 to 68 °C

Req: Sample O=C(O)COc1c(-c2cccc(Cl)c2)cc(C(=O)NCCCCCCCCSc2nc3ccccc3o2)cc1-c1cccc(Cl)c1 — what was its melting point?
Resp: > 68 °C (dec.)

Req: Which measured melting point value corresponds to O=C(O)COc1c(Br)cc(C(=O)NCCCC2CCCC2)cc1-c1cccc(Cl)c1 ?
Resp: > 135 °C (dec.)

Req: // melting point lookup, key: O=C(O)COc1c(Br)cc(C(=O)NCCCc2ccccc2)cc1-c1ccccc1F
Resp: > 90 °C (dec.)

Req: Bench note: what melting point did CCCCCCCCCCCCNC(=O)c1cc(-c2cccc(C(F)(F)F)c2)c(OCC(=O)O)c(-c2cccc(C(F)(F)F)c2)c1 show?
Resp: 154.3 to 158.2 °C

Req: Consider the compound shown here: O=C(O)COc1c(-c2ccccc2)cc(Br)cc1-c1ccccc1 What is its recorded melting point?
Resp: > 50 °C (dec.)

Req: Data request, read-out melting point, for CCCCCCCCOc1cc(-c2cccc([N+](=O)[O-])c2)c(OCC(=O)O)c(-c2cccc([N+](=O)[O-])c2)c1
Resp: 129 to 132 °C

Req: Tell me the measured melting point of CCCCCCc1cc(-c2ccccc2)c(OCC(=O)O)c(-c2ccccc2)c1 , please.
Resp: 87 to 89 °C
